For each record, write down the corresponding Ki.
TARGET DESC: cloned human dopamine D3 receptors (Homo sapiens)
Construct: expressed in transfected cells; membrane homogenate
MEASUREMENT DESCRIPTION: [N-Methyl-3H]Spiroperidol binding to cloned human dopamine D3 receptors
CONDITIONS USED: read-out: D3 Ki
Give bare numbers, in nM.

Please state Ki for every molecule in the list that follows.
1. Cn1nc(C2CCN(C[C@@H]3C[C@H]3C(=O)N3CCC(Cn4ccnc4)CC3)CC2)c2cccc(C(F)(F)F)c21
2. O=C(NC1CCN(Cc2cc(Cl)ccc2Cl)CC1)C1CC1CN1CCC(c2noc3ccsc23)CC1 (racemic)
3. CN1CCN(CCCNC(=O)[C@@H]2C[C@H]2CN2CCC(c3noc4c(C(F)(F)F)cccc34)CC2)CC1
4. O=C(NC1CCN(Cc2ccc(Cl)cc2)CC1)C1CC1CN1CCC(c2noc3ccsc23)CC1 (racemic)
5. Cn1nc(N2CCN(C[C@@H]3C[C@H]3C(=O)N3CCC(n4ccnc4)CC3)CC2)c2sccc21

OUT:
1. 26.5
2. 1.88
3. 97.3
4. 3.55
5. 54.8

Please state Ki for every molecule in the list that follows.
1. O=C(N[C@H]1CC[C@H](O)CC1)[C@@H]1C[C@H]1CN1CCC(c2noc3c(C(F)(F)F)cccc23)CC1
2. O=C(NCCCn1ccnc1)[C@@H]1C[C@H]1CN1CCC(c2noc3ccsc23)CC1
3. COc1ccc2c(c1)c(N1CCN(C[C@@H]3C[C@H]3C(=O)N3CCC(n4ccnc4)CC3)CC1)nn2C

OUT:
1: 112; 2: 4.41; 3: 26.3

###

TARGET DESC: cloned human dopamine D3 receptors (Homo sapiens, UniProt P35462)
Construct: expressed in transfected cells; membrane homogenate
Sequence (P35462 whole entry): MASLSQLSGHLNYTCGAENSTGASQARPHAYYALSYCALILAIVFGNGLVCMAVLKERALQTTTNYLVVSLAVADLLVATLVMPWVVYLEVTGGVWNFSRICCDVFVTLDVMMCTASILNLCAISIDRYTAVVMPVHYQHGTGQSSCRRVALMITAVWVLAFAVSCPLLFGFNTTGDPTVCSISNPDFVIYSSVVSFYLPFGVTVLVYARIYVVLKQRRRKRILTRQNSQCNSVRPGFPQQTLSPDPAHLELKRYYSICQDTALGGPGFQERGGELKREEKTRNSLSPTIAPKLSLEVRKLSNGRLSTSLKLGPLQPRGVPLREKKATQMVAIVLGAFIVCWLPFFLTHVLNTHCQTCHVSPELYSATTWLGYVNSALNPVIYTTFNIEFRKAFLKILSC
MEASUREMENT DESCRIPTION: [N-Methyl-3H]Spiroperidol binding to cloned human dopamine D3 receptors
CONDITIONS USED: read-out: D3 Ki
For each record, write down the corresponding log10(Ki).
Each number you see is log10 of Ki, and the unit inside the log is nM.

Please state log10(Ki) for every compound in the list that follows.
1. O=C(C1CC1CN1CCC(c2noc3ccsc23)CC1)N1CCC(n2ccnc2)CC1 (racemic)
2. O=C(NC1CCN(Cc2ccc(F)cc2)CC1)[C@@H]1C[C@H]1CN1CCC(c2noc3ccsc23)CC1
3. COc1ccc2[nH]nc(N3CCN(CC4CC4C(=O)NC4CCC(C)CC4)CC3)c2c1 (racemic)
4. COc1cc2c(cc1OC)CN(C(=O)[C@@H]1C[C@H]1CN1CCC(c3noc4ccsc34)CC1)CC2

OUT:
1. 1.12
2. -0.13
3. 1.25
4. 0.89

###

TARGET DESC: cloned human dopamine D3 receptors (Homo sapiens, UniProt P35462)
Construct: expressed in transfected cells; membrane homogenate
MEASUREMENT DESCRIPTION: [N-Methyl-3H]Spiroperidol binding to cloned human dopamine D3 receptors
CONDITIONS USED: D3 Ki (nM)
PARAMETER: Ki (nM)
One number for each entry, in nM.

In plain terms, O=C([C@@H]1C[C@H]1CN1CCC(c2noc3ccsc23)CC1)N1CCC2(CC1)OCCO2 has a documented Ki of 24.8

###

TARGET DESC: cloned human dopamine D3 receptors (Homo sapiens)
Construct: expressed in transfected cells; membrane homogenate
MEASUREMENT DESCRIPTION: [N-Methyl-3H]Spiroperidol binding to cloned human dopamine D3 receptors
CONDITIONS USED: read-out: D3 Ki
For each record, write down the corresponding log10 of Ki.
Each number you see is log10 of Ki, and the unit inside the log is nM.

{"columns": ["COMPOUND", "TARGET DESC", "REPORTED RESULT"],
 "data": [
  ["Cc1ccc(S(=O)(=O)n2nc(N3CCN(C[C@@H]4C[C@H]4C(=O)N[C@H]4CC[C@H](O)CC4)CC3)c3sccc32)cc1 [compound 831951]", "cloned human dopamine D3 receptors (Homo sapiens)", 1.56]
]}

Please state log10 of Ki for every compound in the list that follows.
1. O=C([C@@H]1C[C@H]1CN1CCC(c2noc3ccsc23)CC1)N1CCN(CCc2cccs2)CC1 [compound 833163]
2. O=C(NCCCn1ccnc1)[C@@H]1C[C@H]1CN1CCN(c2n[nH]c3ccsc23)CC1 [compound 831315]
3. O=C(NC1CCCC1)C1CC1CN1CCC(c2noc3ccsc23)CC1 (racemic) [compound 829592]
4. CC1CCN(CCCNC(=O)[C@@H]2C[C@H]2CN2CCN(c3nn(C)c4ccsc34)CC2)CC1 [A002350369]
5. O=C(NCCc1cccc(Cl)c1)C1CC1CN1CCC(c2noc3ccsc23)CC1 (racemic) [compound 831799]
6. O=C(NC1CCN(Cc2cc(F)ccc2F)CC1)[C@@H]1C[C@H]1CN1CCC(c2noc3ccsc23)CC1 [compound 833168]

OUT:
1: 1.24; 2: 1.47; 3: 1.63; 4: 2.00; 5: 1.08; 6: 0.49

###

For each record, write down the corresponding log10 of Ki.
TARGET DESC: cloned human dopamine D3 receptors (Homo sapiens)
Construct: expressed in transfected cells; membrane homogenate
MEASUREMENT DESCRIPTION: [N-Methyl-3H]Spiroperidol binding to cloned human dopamine D3 receptors
CONDITIONS USED: read-out: D3 Ki
Each number you see is log10 of Ki, and the unit inside the log is nM.

Known results for compounds:
{"columns": ["COMPOUND", "PARAMETER", "REPORTED RESULT"],
 "data": [
  ["CCC1CCC(NC(=O)C2CC2CN2CCN(C(=O)OC(C)(C)C)CC2)CC1 (racemic)", "log10 of Ki", 2.20],
  ["O=C(NC1CCN(Cc2ccccc2Cl)CC1)[C@@H]1C[C@H]1CN1CCC(c2noc3ccsc23)CC1", "log10 of Ki", 0.56],
  ["Cn1nc(N2CCN(C[C@@H]3C[C@H]3C(=O)N[C@H]3CC[C@H](O)CC3)CC2)c2sccc21 [8319560A]", "log10 of Ki", 0.77],
  ["O=C(C1CC1CN1CCC(c2noc3ccsc23)CC1)N1CCN(CCc2ccccc2)CC1 (racemic)", "log10 of Ki", 1.34],
  ["O=C([C@@H]1C[C@H]1CN1CCN(c2nc3cccc4c3n2CCC4)CC1)N1CCC(Cn2ccnc2)CC1", "log10 of Ki", 1.51]
]}

Please state log10 of Ki for every compound in the list that follows.
1. C[C@H]1CC[C@H](NC(=O)[C@@H]2CC[C@H]2CN2CCCN(c3csc4cc(F)ccc34)CC2)CC1 (racemic)
2. O=C(C1CC1CN1CCC(c2noc3ccsc23)CC1)N1CC=CC1 (racemic)
3. O=C(NCCCn1ccnc1-c1ccccc1)[C@@H]1C[C@H]1CN1CCC(c2noc3ccsc23)CC1
4. COc1ccc(CN2CCC(NC(=O)C3CC3CN3CCC(c4noc5ccsc45)CC3)CC2)cc1 (racemic)
5. CN1CCN(CCCNC(=O)[C@@H]2C[C@H]2CN2CCN(c3nn(C)c4ccsc34)CC2)CC1
6. COc1cccc2c(C3CCN(C[C@@H]4C[C@H]4C(=O)NCCCc4ccccc4)CC3)noc12
7. Cc1ccc2c(c1)c(C1CCN(C[C@@H]3C[C@H]3C(=O)N[C@H]3CC[C@H](C)CC3)CC1)nn2C
8. COc1cccc(C(=O)NNC(=O)C2CC2CN2CCC(c3noc4ccsc34)CC2)c1 (racemic)

OUT:
1. 1.02
2. 2.56
3. 1.55
4. 0.26
5. 2.20
6. 1.91
7. 0.44
8. 2.91

###

TARGET DESC: cloned human dopamine D3 receptors (Homo sapiens, UniProt P35462)
Construct: expressed in transfected cells; membrane homogenate
MEASUREMENT DESCRIPTION: [N-Methyl-3H]Spiroperidol binding to cloned human dopamine D3 receptors
CONDITIONS USED: read-out: D3 Ki
Mark each entry label 1 if its Ki sits below 50 nM, and label 0 for all others.

{"columns": ["COMPOUND", "QUALITATIVE LABEL"],
 "data": [
  ["COc1ccc2c(c1)c(N1CCN(C[C@@H]3C[C@H]3C(=O)NCC3CCN(C(C)=O)CC3)CC1)nn2C [compound 833197]", "label 1"],
  ["O=C(NCC1CCNCC1)[C@@H]1C[C@H]1CN1CCC(c2noc3c(C(F)(F)F)cccc23)CC1 [A002440437A]", "label 1"],
  ["COc1c(F)ccc2c(C3CCN(C[C@@H]4C[C@H]4C(=O)N[C@H]4CC[C@H](C)CC4)CC3)noc12 [compound 831361]", "label 1"]
]}

IN: Hi there! Is Ki for O=C(NCCCN1CCCC1=O)[C@@H]1C[C@H]1CN1CCC(c2noc3ccsc23)CC1 [compound 830832] below 50 nM, do you know?
OUT: label 0

IN: Hi there! Is Ki for Cn1nc(N2CCN(C[C@@H]3C[C@H]3C(=O)NCCCn3ccnc3)CC2)c2sccc21 [compound 831830] below 50 nM, do you know?
OUT: label 1

IN: Hi there! Is Ki for O=C(C1COc2ccccc2O1)N1CCN(C(=O)C2CC2CN2CCC(c3noc4ccsc34)CC2)CC1 (racemic) [compound 832055] below 50 nM, do you know?
OUT: label 0
